Provenance of the data: patent US8158636B2

target: TEC (Homo sapiens)
Sequence (P42680 whole entry): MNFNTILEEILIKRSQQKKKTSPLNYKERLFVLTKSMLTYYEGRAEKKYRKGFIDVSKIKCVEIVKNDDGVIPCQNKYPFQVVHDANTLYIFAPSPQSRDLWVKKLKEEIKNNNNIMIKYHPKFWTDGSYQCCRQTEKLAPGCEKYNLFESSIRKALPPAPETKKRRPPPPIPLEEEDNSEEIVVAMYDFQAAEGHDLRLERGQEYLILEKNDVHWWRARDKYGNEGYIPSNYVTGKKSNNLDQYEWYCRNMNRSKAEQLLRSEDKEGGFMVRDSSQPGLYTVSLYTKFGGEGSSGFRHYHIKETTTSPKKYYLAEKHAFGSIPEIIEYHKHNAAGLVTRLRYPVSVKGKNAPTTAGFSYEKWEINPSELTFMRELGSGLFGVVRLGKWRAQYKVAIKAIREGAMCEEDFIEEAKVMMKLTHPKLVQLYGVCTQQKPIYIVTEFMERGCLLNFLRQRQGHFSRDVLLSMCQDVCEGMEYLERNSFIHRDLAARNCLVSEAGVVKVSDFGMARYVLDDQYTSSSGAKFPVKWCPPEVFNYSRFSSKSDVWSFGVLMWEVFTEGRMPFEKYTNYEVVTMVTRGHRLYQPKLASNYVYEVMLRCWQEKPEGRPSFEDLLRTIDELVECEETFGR
Quantity kind: IC50

Challenge: Quote TEC (Homo sapiens) IC50 for entry Clc1ccccc1CNc1ccc(Cc2c[nH]c3ncncc23)cn1 [P-0003] .
Response given: ≤ 10 µM

###

target: B-Raf V600E (Homo sapiens, UniProt P15056, V600E); assay: Kinase activity assay, B-Raf V600E; assay type: biochemical; settings: Table 1c; read-out: activity toward kinase B-Raf V600E, IC50
Sequence (P15056 whole entry V600E): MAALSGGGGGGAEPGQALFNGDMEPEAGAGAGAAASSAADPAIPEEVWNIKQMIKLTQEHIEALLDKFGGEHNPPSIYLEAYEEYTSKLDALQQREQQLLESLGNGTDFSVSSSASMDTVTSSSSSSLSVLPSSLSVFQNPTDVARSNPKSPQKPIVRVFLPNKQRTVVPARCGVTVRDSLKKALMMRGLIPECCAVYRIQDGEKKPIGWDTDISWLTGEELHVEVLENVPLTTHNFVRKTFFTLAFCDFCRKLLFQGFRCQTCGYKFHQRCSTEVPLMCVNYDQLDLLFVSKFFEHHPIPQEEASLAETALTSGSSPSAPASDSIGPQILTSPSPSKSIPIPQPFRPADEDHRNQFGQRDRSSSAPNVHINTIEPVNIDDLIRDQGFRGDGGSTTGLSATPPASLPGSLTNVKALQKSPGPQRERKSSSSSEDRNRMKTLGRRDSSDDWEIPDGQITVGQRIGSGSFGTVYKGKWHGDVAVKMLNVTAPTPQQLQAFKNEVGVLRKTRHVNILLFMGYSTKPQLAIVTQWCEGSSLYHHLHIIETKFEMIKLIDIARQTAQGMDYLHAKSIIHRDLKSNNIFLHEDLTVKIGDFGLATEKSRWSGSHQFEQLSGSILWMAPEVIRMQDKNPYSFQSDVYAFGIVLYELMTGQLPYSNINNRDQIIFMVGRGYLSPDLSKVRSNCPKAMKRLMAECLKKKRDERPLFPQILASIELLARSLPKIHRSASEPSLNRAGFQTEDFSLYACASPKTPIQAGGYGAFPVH
pIC50: −log10 of the molar value.
Quantity kind: pIC50

Examples from the recorded data:
# Molecule, pIC50
records = [
    ("Fc1nc(NCc2ccc(Cl)cc2)ccc1Cc1c[nH]c2ncncc12", "≥ 5.00"),
    ("COc1ccc(OC)c(CNc2ccc(Cc3c[nH]c4ncncc34)c(F)n2)c1", "≥ 5.00"),
    ("c1cnc(OC2CCCC2)c(CNc2ncc(Cc3c[nH]c4ncncc34)cn2)c1", "≥ 5.00"),
    ("Fc1nc(NCc2ccc(N3CCCC3)cn2)ccc1Cc1c[nH]c2ncncc12", "≥ 5.00"),
]

Challenge: Complete the entry with pIC50 for COc1ncnc2[nH]cc(Cc3ccc(NCc4cnccc4C(F)(F)F)nc3F)c12
Response given: ≥ 5.00

###

target: A-Raf (Homo sapiens)
Sequence (P10398 whole entry): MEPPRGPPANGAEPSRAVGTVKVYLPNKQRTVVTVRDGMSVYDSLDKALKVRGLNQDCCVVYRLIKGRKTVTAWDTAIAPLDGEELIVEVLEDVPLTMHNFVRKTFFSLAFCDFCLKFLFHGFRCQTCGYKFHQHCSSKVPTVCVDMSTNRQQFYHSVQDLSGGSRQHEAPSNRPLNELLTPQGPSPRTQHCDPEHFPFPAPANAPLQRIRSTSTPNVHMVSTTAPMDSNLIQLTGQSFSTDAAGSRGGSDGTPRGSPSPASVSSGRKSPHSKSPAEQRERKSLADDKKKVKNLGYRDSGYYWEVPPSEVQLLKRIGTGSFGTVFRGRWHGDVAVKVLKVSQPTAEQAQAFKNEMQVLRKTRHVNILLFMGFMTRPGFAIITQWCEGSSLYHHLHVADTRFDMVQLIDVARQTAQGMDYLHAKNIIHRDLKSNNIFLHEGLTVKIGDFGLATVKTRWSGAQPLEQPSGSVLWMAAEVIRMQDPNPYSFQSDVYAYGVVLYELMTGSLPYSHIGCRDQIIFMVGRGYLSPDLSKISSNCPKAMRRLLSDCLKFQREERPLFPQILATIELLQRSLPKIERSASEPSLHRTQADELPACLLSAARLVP
pIC50: −log10 of the molar value.
Quantity kind: pIC50

Challenge: Complete the entry with pIC50 for COc1ncc(F)cc1CNc1ccc(Cc2c[nH]c3ncncc23)c(F)n1
Response given: ≥ 5.00
